Data provenance is paper PMC4536312.

Molecular target: T1, U2AF23 R28S;U2AF59 fragment (Schizosaccharomyces …, UniProt Q09176;P36629 1-216;93-161, R28S|)
T1 sequence 1: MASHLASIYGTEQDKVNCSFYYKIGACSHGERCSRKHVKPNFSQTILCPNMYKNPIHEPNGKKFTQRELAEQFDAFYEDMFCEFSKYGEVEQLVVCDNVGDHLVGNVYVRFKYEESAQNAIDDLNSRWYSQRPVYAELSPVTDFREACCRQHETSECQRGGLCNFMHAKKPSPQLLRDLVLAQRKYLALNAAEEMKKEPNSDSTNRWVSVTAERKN
T1 sequence 2: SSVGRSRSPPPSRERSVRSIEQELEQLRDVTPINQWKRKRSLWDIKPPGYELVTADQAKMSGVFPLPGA
Experiment: ITC

{"binder": "CUAGG (ssRNA)", "Kd [µM]": 12}
